Data origin: PubChem BioAssay (NCATS)

System: PA-1
Test: Primary qHTS to identify gynecologic anti-cancer compounds using libraries of approved drugs and bioactive compounds (AID 1345084); further: nearly all actives have a fitted effect of over 55% in size
Settings: Gynecologic cancer cell panel viability, ATPlite luminescence, 48 h; series mostly up to 57.5 µM
Inconclusive results are not listed. Activity calls are given as the source filed them. The call rests on the fitted dose curve; in most records, active means well fitted cell-killing curve with a large enough effect; inconclusive means small, poorly fitted or top-dose-only effect, or effect the other way; inactive means flat fitted curve, though single readings scatter.
Labels: active, inactive

>  <compound>
CCOC(=O)n1ccn(C)c1=S

>  <tested system>
PA-1

>  <assigned category>
inactive

$$$$
>  <compound>
CC/C(=C(/CC)c1ccc(O)cc1)c1ccc(O)cc1

>  <tested system>
PA-1

>  <assigned category>
inactive

$$$$
>  <compound>
Nc1ccc(C(=O)O)cc1

>  <tested system>
PA-1

>  <assigned category>
inactive

$$$$
>  <compound>
O=c1ccc2ccccc2o1

>  <tested system>
PA-1

>  <assigned category>
inactive

$$$$
>  <compound>
C[C@H]1C[C@H]2[C@@H]3CCC4=CC(=O)C=C[C@]4(C)[C@@]3(Cl)[C@@H](O)C[C@]2(C)[C@@]1(O)C(=O)CO

>  <tested system>
PA-1

>  <assigned category>
inactive

$$$$
>  <compound>
C[n+]1c2cc(N)ccc2cc2ccc(N)cc21 (tested in a mixture with another compound)

>  <tested system>
PA-1

>  <assigned category>
active

$$$$
>  <compound>
CC(CCc1ccccc1)NCC(O)c1ccc(O)c(C(N)=O)c1 (configuration not stated)

>  <tested system>
PA-1

>  <assigned category>
inactive

$$$$
>  <compound>
CN1CCCC(CC2c3ccccc3Sc3ccccc32)C1 (configuration not stated)

>  <tested system>
PA-1

>  <assigned category>
inactive

$$$$
>  <compound>
NC(=O)c1cc[n+](CC2=C(C(=O)[O-])N3C(=O)[C@@H](NC(=O)Cc4cccs4)[C@H]3SC2)cc1

>  <tested system>
PA-1

>  <assigned category>
inactive

$$$$
>  <compound>
CC(C)(C(=O)c1cccnc1)c1cccnc1

>  <tested system>
PA-1

>  <assigned category>
inactive

$$$$
>  <compound>
O=C(O)CCCCC(=O)O

>  <tested system>
PA-1

>  <assigned category>
inactive

$$$$
>  <compound>
C=CCc1ccc(O)c(OC)c1

>  <tested system>
PA-1

>  <assigned category>
inactive

$$$$

====

Assay: qHTS for Inhibitors of Cell Surface uPA Generation: Validation Assay (AID 493164);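 further: RAW 264.7 macrophage cells exposed to compound for 18 h; 0% is about no effect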
Conditions: mouse cells, plasminogen activation; series mostly up to 38.3 µM
The source made the active and inactive calls. The call rests on the fitted dose curve; in most records, active means well fitted curve in the direction sought with a large enough effect; inconclusive means small, poorly fitted or top-dose-only effect, or effect the other way, or another doubt; inactive means no such curve, though single readings can be large or run the other way.
measurement kind: outcome

>  <compound>
C[C@@H]1C(=O)NC2=Nc3cccc(Cl)c3CN21

>  <measured result>
inactive

$$$$
>  <compound>
O=C(O)c1cc2cc(Cc3cccnc3)ccc2o1

>  <measured result>
inactive

$$$$
>  <compound>
CC1(C)CCC(NC(=O)[C@@H](N)CCC(=O)O)CC1

>  <measured result>
inactive

$$$$
>  <compound>
CC(C)C[C@H]1C(=O)N2CCC[C@H]2[C@]2(O)O[C@](NC(=O)[C@@H]3C=C4c5cccc6[nH]c(Br)c(c56)C[C@H]4N(C)C3)(C(C)C)C(=O)N12

>  <measured result>
inactive

$$$$
>  <compound>
C[N+]1(CCCCC[N+]2(C)CCCC2)CCCC1

>  <measured result>
inactive

$$$$
>  <compound>
CCCn1c(=O)[nH]c(=O)c2[nH]cnc21

>  <measured result>
inactive

$$$$
>  <compound>
CCCC1O[C@@H]2C[C@H]3[C@@H]4CCC5=CC(=O)C=C[C@]5(C)[C@H]4[C@@H](O)C[C@]3(C)[C@]2(C(=O)CO)O1 (stereo partly drawn)

>  <measured result>
inactive

$$$$
>  <compound>
CC(CCc1ccccc1)NCC(O)c1ccc(O)c(C(N)=O)c1 (stereo not drawn)

>  <measured result>
inactive

$$$$

====

System: CP247
Experiment: qHTS profiling for inhibitors of Plasmodium falciparum proliferation (AID 504749); further: nearly all actives have a fitted effect of over 60% in size; further: potency means the concentration at half of the fitted maximal effect
Details: P. falciparum in erythrocytes, SYBR Green DNA, 72 h; series mostly up to 28.7 µM
Procedure: NIH National Institute of Allergy and Infectious Diseases [NIAID] NIH Chemical Genomics Center [NCGC] […] Because mature erythrocytes lack DNA, only Plasmodium-derived DNA is detected. NCGC Assay Protocol Summary: The SYBR Green viability assay was adapted from a method described previously (Plouffe et al., 2008). […] The following morning, fluorescence intensity at 485(14) nm excitation and 535(25) nm emission wavelengths was measured on an EnVision (Perkin Elmer) plate reader. […]
Inconclusive results are not listed. Active and inactive are the calls of the source. Calls come from the whole dose curve; as a rule, active = well fitted inhibition curve with a large enough effect; inconclusive = small, poorly fitted or top-dose-only effect; inactive = flat fitted curve, though single readings scatter.

>  <compound>
N[C@H](CO)C(=O)O

>  <tested system>
CP247

>  <Potency>
inactive

$$$$
>  <compound>
CC(C)(CO)[C@@H](O)C(=O)NCCCO

>  <tested system>
CP247

>  <Potency>
inactive

$$$$
>  <compound>
C[C@@H]1CN(CCCn2c3ccccc3c3ccccc32)C[C@H](C)N1

>  <tested system>
CP247

>  <Potency>
4.47 µM (active)

$$$$
>  <compound>
CC(Cc1cccc(C(F)(F)F)c1)NCCOC(=O)c1ccccc1 (configuration not stated)

>  <tested system>
CP247

>  <Potency>
inactive

$$$$
>  <compound>
CC(C)(C)CC(C)(C)c1ccc(OCCOCC[N+](C)(C)Cc2ccccc2)cc1

>  <tested system>
CP247

>  <Potency>
3.98 µM (active)

$$$$
>  <compound>
CCCCCCCCCCCCCCNCCO

>  <tested system>
CP247

>  <Potency>
10 µM (active)

$$$$
>  <compound>
Cc1cc(N)c2cc(NC(=O)Nc3ccc4nc(C)cc(N)c4c3)ccc2n1

>  <tested system>
CP247

>  <Potency>
12.6 µM (active)

$$$$
>  <compound>
CC(O)(P(=O)(O)O)P(=O)(O)O

>  <tested system>
CP247

>  <Potency>
inactive

$$$$
>  <compound>
CC(C)(Oc1ccc(Cl)cc1)C(=O)O

>  <tested system>
CP247

>  <Potency>
inactive

$$$$
>  <compound>
COc1cccc(CCc2ccccc2OCC(CN(C)C)OC(=O)CCC(=O)O)c1 (configuration not stated)

>  <tested system>
CP247

>  <Potency>
5.62 µM (active)

$$$$
>  <compound>
NCCC(O)(P(=O)(O)O)P(=O)(O)O

>  <tested system>
CP247

>  <Potency>
inactive

$$$$
>  <compound>
CC(C)COC(=O)OCN1C(=O)CN(CCN2CC(=O)N(COC(=O)OCC(C)C)C(=O)C2)CC1=O

>  <tested system>
CP247

>  <Potency>
inactive

$$$$

====

Assay: Cell Viability - LYMP2-011 (AID 969);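 further: cells exposed to compound for 24 hours; nearly all actives have a fitted effect of over 60% in size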
Conditions: LYMP2-011 lymphoblastoid cells viability; series mostly up to 92.2 µM
Description: NIH Chemical Genomics Center [NCGC] NIH Molecular Libraries Screening Centers Network [MLSCN] National Institutes of Environmental Health Sciences [NIEHS] National Toxicology Program [NTP] We have developed a 1536-well cell-based assay for quantitative high throughput screening (qHTS) against a number of cell lines to determine in vitro cytotoxicity of small molecules. […] 8. Detection; Luminescence; Viewlux plate reader […]
Records with an inconclusive call do not appear. The source made the active and inactive calls. Calls come from the whole dose curve; as a rule, active = well fitted cell-killing curve with a large enough effect; inconclusive = small, poorly fitted or top-dose-only effect; inactive = flat fitted curve, though single readings scatter.
Outcomes: y = active, n = inactive

>  <smiles str>
CN(C)/N=N/c1nc[nH]c1C(N)=O

>  <assigned category>
n

$$$$
>  <smiles str>
Oc1ccc(O)cc1

>  <assigned category>
y

$$$$
>  <smiles str>
C[C@]12CC[C@@H]3c4ccc(O)cc4CC[C@H]3[C@@H]1CC[C@@H]2O

>  <assigned category>
n

$$$$
>  <smiles str>
CC/C(=C(/CC)c1ccc(O)cc1)c1ccc(O)cc1

>  <assigned category>
n

$$$$
>  <smiles str>
CCCCCCc1ccc(O)cc1O

>  <assigned category>
n

$$$$
>  <smiles str>
CC(C)(C)CC(C)(C)c1ccc(OCCOCC[N+](C)(C)Cc2ccccc2)cc1

>  <assigned category>
y

$$$$
>  <smiles str>
C=CCc1ccc(O)c(OC)c1

>  <assigned category>
n

$$$$

====

Experiment: qHTS of pediatric cancer cell lines to identify multiple opportunities for drug repurposing: Primary screen for SK-N-SH cells (AID 1347098); further: nearly all actives have a fitted effect of over 65% in size
Settings: SK-N-SH viability, CellTiter-Glo luminescence, 48 h; series mostly up to 57 µM
Results filed as inconclusive are left out. Activity calls are given as the source filed them. The call rests on the fitted dose curve; in most records, active means well fitted cell-killing curve with a large enough effect; inconclusive means small, poorly fitted or top-dose-only effect; inactive means no such curve, though single readings can be large or run the other way.
Labels: true (1) for active, false (0) for inactive

>  <compound>
CC(Cc1ccccc1)(NC(=O)CN)c1ccccc1 (stereo unspecified)

>  <assigned category>
false (0)

$$$$
>  <compound>
C#C[C@]1(OC(C)=O)CC[C@H]2[C@@H]3CCC4=C[C@@H](OC(C)=O)CC[C@@H]4[C@H]3CC[C@@]21C

>  <assigned category>
false (0)

$$$$
>  <compound>
CCCCCCCCCCCCCCCC[N+](C)(C)CCN(Cc1ccc(OC)cc1)c1ncccn1

>  <assigned category>
true (1)

$$$$
>  <compound>
NCCc1ccn[nH]1

>  <assigned category>
false (0)

$$$$
>  <compound>
Cc1ccc(O)c2ncccc12

>  <assigned category>
true (1)

$$$$
>  <compound>
CCCCOc1ccc(OCCCN2CCOCC2)cc1

>  <assigned category>
false (0)

$$$$
